testedOn: HCoV-NL63 S protein (S1+S2 ECD) (HCoV-NL63, strain not named (stand-in: …, UniProt Q6Q1S2))
Sequence (Q6Q1S2 whole entry, looked up, the tested form may be a part): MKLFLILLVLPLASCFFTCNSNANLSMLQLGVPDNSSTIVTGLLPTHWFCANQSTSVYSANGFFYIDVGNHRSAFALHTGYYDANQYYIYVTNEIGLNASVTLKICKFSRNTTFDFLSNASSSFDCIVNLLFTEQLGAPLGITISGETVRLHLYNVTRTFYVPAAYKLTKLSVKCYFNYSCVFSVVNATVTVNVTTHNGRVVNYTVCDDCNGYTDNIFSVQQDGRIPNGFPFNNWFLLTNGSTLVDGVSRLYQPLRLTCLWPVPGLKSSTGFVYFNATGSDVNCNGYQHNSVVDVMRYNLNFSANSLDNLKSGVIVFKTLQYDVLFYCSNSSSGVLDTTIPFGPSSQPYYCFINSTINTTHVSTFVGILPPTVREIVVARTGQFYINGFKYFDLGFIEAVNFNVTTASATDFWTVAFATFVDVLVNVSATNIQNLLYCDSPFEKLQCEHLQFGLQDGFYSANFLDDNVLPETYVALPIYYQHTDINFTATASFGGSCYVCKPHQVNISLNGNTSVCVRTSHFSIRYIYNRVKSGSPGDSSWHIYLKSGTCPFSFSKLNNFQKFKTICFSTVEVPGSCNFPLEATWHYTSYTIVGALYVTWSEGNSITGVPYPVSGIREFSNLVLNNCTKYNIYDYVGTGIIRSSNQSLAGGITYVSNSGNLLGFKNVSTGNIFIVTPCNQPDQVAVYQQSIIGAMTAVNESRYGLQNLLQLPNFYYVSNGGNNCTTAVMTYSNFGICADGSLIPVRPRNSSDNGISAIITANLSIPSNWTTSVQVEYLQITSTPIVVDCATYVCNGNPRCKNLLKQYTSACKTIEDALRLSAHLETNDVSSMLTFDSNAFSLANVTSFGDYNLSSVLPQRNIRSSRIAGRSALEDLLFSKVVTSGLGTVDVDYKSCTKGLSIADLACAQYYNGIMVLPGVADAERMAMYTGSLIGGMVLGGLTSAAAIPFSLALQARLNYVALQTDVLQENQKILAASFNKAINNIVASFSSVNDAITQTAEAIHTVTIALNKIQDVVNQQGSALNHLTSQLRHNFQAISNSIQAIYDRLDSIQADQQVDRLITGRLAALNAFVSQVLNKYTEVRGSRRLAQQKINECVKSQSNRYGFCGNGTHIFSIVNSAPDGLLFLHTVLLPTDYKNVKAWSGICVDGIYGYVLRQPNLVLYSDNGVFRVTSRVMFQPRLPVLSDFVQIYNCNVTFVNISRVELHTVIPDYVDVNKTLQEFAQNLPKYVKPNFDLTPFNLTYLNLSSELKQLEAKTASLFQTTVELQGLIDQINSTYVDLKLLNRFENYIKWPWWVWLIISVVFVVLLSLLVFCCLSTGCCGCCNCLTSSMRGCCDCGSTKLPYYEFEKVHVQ
assaySummary: ELISA
assayEndpoint: binding result

>  <binder>
VP12E7 mAb (antibody, V domains shown) VH: QVQLVQSGGGVVQPGESLRLSCSGSGFTFNNYIMHWVRQAPGQGLDYVSGIGSDGRNTNYGDSVKGRFTISRDNSKDTLYLQMTSLRAEDTAFYYCVKGLDVLRFLDLSTPSGERLDAFDIWGQGTMVTVSS VL: DIVMTQSPSFLSASVGDRVTITCRASQGISNYLAWYQQKPGKAPHLLIYAASTLQSGVPSRFSGSGSGTEFTLTISSLQPEDFATYYCQQLNSYPLFTFGPGTKVDIE

>  <obsValue>
binds

$$$$
>  <binder>
C13B8 mAb (antibody, V domains shown) VH: QVQLQESGPGLVQPSQTLTLTCTVSGDSISNEDYHWTWIRQHPGKGLEWMGYLQYSGNTNYNPSLKSRMTISVDTSKNQFSLRLNSVTAADTAVYFCATSIVLTGMSNKIQPFDYWGQGTLVTVSS VL: SYELTQPPSVSVSPGQMARITCSGEALPKKYAYWYQQKGGQFPVLVIYKDTERPSGIPERFSGSSSGTIVTLTISGVQPEDEADYYCLSADTSGTWVFGGGTKLTVL

>  <obsValue>
binds

$$$$
>  <binder>
C13C9 mAb (antibody, V domains shown) VH: EVQLVQSGPEVKKPGTSARVSCKASGFTSKNTALQWVRQARGQPLEWMGWIDISNYITNYAQKFRGRLTITWDLSASMAYMELSSLRSEDTAVYYCAAVGKDDDVLTGGNKYFDHWGQGTLVTVSS VL: SYELTQPPSVSVSPGQTARITCSGDALPKKYAYWYQQKSGQAPVLVIHEDDKRPSGIPGRFSASSSGTTATLTISGAQVEDEADYYCYSTDTNDNHAFGSGTKLTVL

>  <obsValue>
binds

$$$$
>  <binder>
C77G12 mAb (antibody, V domains shown) VH: EVQLVESGGGVVQPGRSLRISCAVSGFTFGSYAMHWVRQAPGKGLEWVGVMSSDGHNEYYADSVKGRFTISRDNSRNKLYLEMNNLRVDDTAVFYCARGSDYVDDSPPLHYWGQGTLVTVSS VL: DIQLTQSPSSLSASIGDRVTITCRASQDIANKLAWFQQAPGKAPKSLIYAASRLQSGVPSQFSGSGSGTDFTLTIESLQAGDFATYFCQQYDSFPFTFGPGTKVDVK

>  <obsValue>
binds

$$$$
